target of assay: 5HT1c-Rezeptoren (Rattus norvegicus, UniProt P08909)
Construct: from tissue; host or cells: living rat (whole animal)
Sequence (P08909 33-460): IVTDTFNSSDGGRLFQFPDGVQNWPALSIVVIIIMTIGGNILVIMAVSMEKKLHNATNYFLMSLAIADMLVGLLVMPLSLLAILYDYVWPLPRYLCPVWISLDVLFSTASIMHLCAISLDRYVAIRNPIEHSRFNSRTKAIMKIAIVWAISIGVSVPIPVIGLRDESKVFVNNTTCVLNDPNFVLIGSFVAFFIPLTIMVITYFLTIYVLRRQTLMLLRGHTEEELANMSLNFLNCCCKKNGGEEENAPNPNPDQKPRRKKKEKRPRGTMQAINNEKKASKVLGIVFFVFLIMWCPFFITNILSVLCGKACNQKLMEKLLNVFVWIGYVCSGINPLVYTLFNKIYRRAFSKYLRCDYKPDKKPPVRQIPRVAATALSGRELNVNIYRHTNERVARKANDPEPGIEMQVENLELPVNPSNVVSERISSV
experiment notes: Antagonism of mCPP-induced penile erections
Type: in vivo, Ratte
condition details: mCPP-pretreated, dose inhibiting number of penile erections within 45 min by 50%
For each of the molecules below, state its ID₅₀.

Reference set, count: 3
molecule	ID₅₀
COc1c2n(c3cccc(Br)c13)CCNC2 [Substanz E]	4.3 mg/kg, s.c.
Fc1ccc2c(cc3n2CCNC3)c1Cl [Substanz N]	4.2 mg/kg, s.c.
COc1c2n(c3ccc(F)cc13)CCNC2 [Substanz B]	4.2 mg/kg, s.c.

Please state, for each entry, its recorded ID₅₀.
1. COc1c2n(c3cccc(F)c13)CCNC2 [Substanz C]
2. COc1c2n(c3cccc(C)c13)CCNC2 [Substanz I]

["17.0 mg/kg, s.c.", "2.7 mg/kg, s.c."]

src = patent EP0572863A1
